Recorded values, source ChEMBL document CHEMBL3885861.

Species on record: Rattus norvegicus
Experiment: Open TG-GATES - Regimen: Single
Assay type: toxicity, organism-based, Sprague-Dawley
Design: regimen Single, gender Male, age 6 weeks
Settings: in vivo, po, 0 mg/kg, 9 h, tissue Plasma, route gavage, dose level Control
ENDPOINT NAME: AST (IU/L)
Dear colleague, please return just the value in IU/L, with no unit written.

Examples with their reported AST follow.
O=C(N[C@H](CO)[C@H](O)c1ccc([N+](=O)[O-])cc1)C(Cl)Cl	67.8
C#C[C@]1(O)CC[C@H]2[C@@H]3CCc4cc(O)ccc4[C@H]3CC[C@@]21C	75
CCN1CCCC1CNC(=O)c1cc(S(N)(=O)=O)ccc1OC (stereo not given) [SULPIRIDE]	70.4
C[C@]12CCC(=O)C=C1CC[C@@H]1[C@@H]2CC[C@@]2(C)[C@H]1CC[C@]2(C)O	76.2
CCSCC[C@H](N)C(=O)O	63

I have this compound here, CCc1oc2ccccc2c1C(=O)c1cc(I)c(O)c(I)c1 , and I need its recorded AST. 62

I have this compound here, CC(=N)S [THIOACETAMIDE] , and I need its recorded AST. 62.8

I have this compound here, CCC(C)(C)C(=O)O[C@H]1C[C@@H](C)C=C2C=C[C@H](C)[C@H](CC[C@@H]3C[C@@H](O)CC(=O)O3)[C@H]21 , and I need its recorded AST. 58.4

I have this compound here, CC(=O)Oc1cc(C(C)C)c(OCCN(C)C)cc1C , and I need its recorded AST. 72

I have this compound here, CC(C)(S)[C@@H](N)C(=O)O , and I need its recorded AST. 72
